For UniProt:Q9NWZ3, measured pIC50 is reported for the entries below.
Sequence (Q9NWZ3 whole entry, species assumed): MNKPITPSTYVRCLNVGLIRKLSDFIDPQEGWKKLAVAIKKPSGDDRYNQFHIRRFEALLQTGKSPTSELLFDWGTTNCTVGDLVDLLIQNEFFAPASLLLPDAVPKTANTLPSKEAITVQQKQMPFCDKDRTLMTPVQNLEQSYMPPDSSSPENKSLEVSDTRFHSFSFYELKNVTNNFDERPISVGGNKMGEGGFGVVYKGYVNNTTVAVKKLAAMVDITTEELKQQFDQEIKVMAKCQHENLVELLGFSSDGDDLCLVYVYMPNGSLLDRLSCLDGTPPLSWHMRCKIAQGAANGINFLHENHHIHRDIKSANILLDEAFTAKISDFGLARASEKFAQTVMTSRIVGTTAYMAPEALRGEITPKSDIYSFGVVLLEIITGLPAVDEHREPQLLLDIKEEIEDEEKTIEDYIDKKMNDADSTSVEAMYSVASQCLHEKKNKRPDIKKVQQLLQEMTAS
pIC50 here is simply -log10 of the concentration when that concentration is written in mol/L.

Example cases with answers are listed next.
1. CC(C)NC(=O)N[C@H]1CC[C@H](NC(=O)c2cnc(Nc3ccc4ncsc4c3)cc2NC(C)C)CC1; 8.68
2. CC(C)(O)[C@H](F)CNC(=O)c1cnc(Nc2nc3scnc3cc2F)cc1NC1CCCC1F (stereo partly shown); 8.70
3. CC(C)Nc1cc(Nc2ccc3ncsc3c2)ncc1C(=O)N[C@H]1CC[C@H](NC(=O)c2ccncc2)CC1; 8.77
4. CC(C)Nc1cc(Nc2nc3ccnn3cc2F)ncc1C(=O)NC1CCC(C(C)(C)O)CC1 (stereo not shown); 8.47
5. CC(C)(F)CNc1cc(Nc2ccc3ncsc3c2)ncc1C(=O)NC[C@@H](F)C(C)(C)O; 8.82

Task item: What does the record list as pIC50 for `CC(C)(O)[C@H](F)CNC(=O)c1cnc(Nc2nc3scnc3cc2F)cc1NC1CC1` ?
Reply: 8.70

Task item: Now try `CCOC(=O)NC12CCC(Nc3cc(Nc4ccc5ncsc5c4)ncc3C(=O)NC[C@@H](F)C(C)(C)O)(CC1)C2` .
Reply: 8.31
